# measuredTarget: purified human plasma kallikrein (Homo sapiens (Human), UniProt P03952)
# Sequence (P03952 391-638): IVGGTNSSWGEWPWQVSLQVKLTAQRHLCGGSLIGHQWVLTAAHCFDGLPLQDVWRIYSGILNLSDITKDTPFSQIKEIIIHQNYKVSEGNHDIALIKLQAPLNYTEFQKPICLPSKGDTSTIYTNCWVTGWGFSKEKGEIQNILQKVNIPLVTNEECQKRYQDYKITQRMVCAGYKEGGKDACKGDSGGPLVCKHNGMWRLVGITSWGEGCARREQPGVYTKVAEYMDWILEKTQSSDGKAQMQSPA
# Sequence (P03952 20-390 partner): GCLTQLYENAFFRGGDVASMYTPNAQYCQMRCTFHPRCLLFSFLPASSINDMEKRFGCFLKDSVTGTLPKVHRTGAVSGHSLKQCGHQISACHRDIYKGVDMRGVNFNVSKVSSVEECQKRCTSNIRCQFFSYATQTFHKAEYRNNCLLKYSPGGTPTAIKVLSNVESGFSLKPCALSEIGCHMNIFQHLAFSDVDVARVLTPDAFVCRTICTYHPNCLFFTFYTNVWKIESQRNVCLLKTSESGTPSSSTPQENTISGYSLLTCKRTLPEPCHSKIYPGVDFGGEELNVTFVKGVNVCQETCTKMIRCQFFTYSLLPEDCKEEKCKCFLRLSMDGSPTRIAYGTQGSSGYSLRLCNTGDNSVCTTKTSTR
# methodNotes: Plasma kallikrein enzyme inhibition assay (chromogenic substrate S-2302)
# Format: biochemical
# experimentalContext: measured at 25° C. (no asterisk)
pKi: −log10 of the molar value. Where a name gives a salt, the structure may show the parent alone.
metricName: pKi

Here's what some known entries look like.
[[record]]
compound = "CC(=O)Nc1cccc2c1CCN(C(=O)c1cn(-c3cccc(Cl)c3F)nn1)C2C(=O)Nc1ccc(C(=O)O)cc1 (stereo not drawn)"
measuredtarget = "purified human plasma kallikrein (Homo sapiens (Human), UniProt P03952)"
experimentalresult = 7.91

[[record]]
compound = "O=C(O)c1ccc(NC(=O)[C@H]2c3cccc(N4CCCCC4)c3CCN2C(=O)[C@H]2CC(c3cccc(Cl)c3F)=NO2)cc1 [Example 292, TFA salt]"
measuredtarget = "purified human plasma kallikrein (Homo sapiens (Human), UniProt P03952)"
experimentalresult = 6.12

[[record]]
compound = "CO[C@@H]1CCN(c2cccc3c2CCN(C(=O)[C@H]2CC(c4cccc(Cl)c4F)=NO2)[C@H]3C(=O)Nc2ccc(C(=O)O)cc2)C1 [Example 299, TFA salt]"
measuredtarget = "purified human plasma kallikrein (Homo sapiens (Human), UniProt P03952)"
experimentalresult = 6.50

[[record]]
compound = "O=C(O)c1ccc(NC(=O)[C@@H]2c3cccc(N4CCOCC4)c3CCN2C(=O)c2cn(-c3cccc(Cl)c3F)cn2)cc1 [Example 91, TFA salt]"
measuredtarget = "purified human plasma kallikrein (Homo sapiens (Human), UniProt P03952)"
experimentalresult = 8.42

[[record]]
compound = "CN(C)C(=O)C1CCN(c2cccc3c2CCN(C(=O)c2cn(-c4cccc(Cl)c4F)nn2)[C@@H]3C(=O)Nc2ccc(C(=O)O)cc2)CC1 (single isomer, unassigned) [Example 58, TFA salt]"
measuredtarget = "purified human plasma kallikrein (Homo sapiens (Human), UniProt P03952)"
experimentalresult = 8.49

[[record]]
compound = "O=C(O)c1ccc(NC(=O)[C@@H]2c3cccc(N4CCCCC4)c3CCN2C(=O)[C@H]2CC(c3cccc(Cl)c3F)=NO2)cc1 [Example 291, TFA salt]"
measuredtarget = "purified human plasma kallikrein (Homo sapiens (Human), UniProt P03952)"
experimentalresult = 7.82

[[record]]
compound = "COC1CCN(c2cccc3c2CCN(C(=O)c2cc(-c4cccc(Cl)c4F)ns2)C3C(=O)Nc2ccc(C(=O)O)cc2)CC1 (racemic) [Example 269, TFA salt]"
measuredtarget = "purified human plasma kallikrein (Homo sapiens (Human), UniProt P03952)"
experimentalresult = 6.69

[[record]]
compound = "COc1ncc(-c2cccc3c2CCN(C(=O)c2cn(-c4cccc(Cl)c4F)nn2)C3C(=O)Nc2ccc(C(=O)O)cc2)cn1 (stereo not drawn)"
measuredtarget = "purified human plasma kallikrein (Homo sapiens (Human), UniProt P03952)"
experimentalresult = 7.70

[[record]]
compound = "O=C(O)c1ccc(NC(=O)C2c3cccc(F)c3CCN2C(=O)c2cn(-c3cccc(Cl)c3F)nn2)cc1 (stereo not drawn)"
measuredtarget = "purified human plasma kallikrein (Homo sapiens (Human), UniProt P03952)"
experimentalresult = 7.51

[[record]]
compound = "CN(C)C1CCN(c2cccc3c2CCN(C(=O)c2cn(-c4cccc(Cl)c4F)cn2)[C@@H]3C(=O)Nc2ccc(C(=O)O)cc2)CC1 (single isomer, unassigned) [Example 55, bis-TFA salt]"
measuredtarget = "purified human plasma kallikrein (Homo sapiens (Human), UniProt P03952)"
experimentalresult = 9.04


(A) Nc1cccc2c1CCN(C(=O)c1cn(-c3cccc(Cl)c3F)nn1)C2C(=O)Nc1ccc(C(=O)O)cc1 (stereo not drawn) [Example 334, TFA salt]
(B) CN1CCN(c2cccc3c2CCN(C(=O)C2CC(c4cccc(Cl)c4)=NO2)C3C(=O)Nc2ccc(C(=O)O)cc2)CC1 (single isomer, unassigned) [Example 216, TFA salt]
-- ask # query: argmin of pKi over A and B Let me know the label of the one you choose.
-- reply A
(A: 8.20, B: 9.44)
